# TARGET_OR_SYSTEM: XPS1 ectodomain (Arabidopsis thaliana)
# Construct: The extracellular domain of XPS1 (amino acids 36-650) was cloned by ligation independent cloning; made in house; host or cells: Hi5 insect cells, baculovirus (pMelBac B)
# MEASUREMENT_PROTOCOL: biochemical
# Type: binding
Where no end group is shown, it is not given here.
MEASURED_ENDPOINT: EC50

(Q) For the sequence LIPEGKVAVTTTQAATERKPLEQPR [xup25] , give its reported EC50.
(A) 381 nM

----------
# TARGET_OR_SYSTEM: XPS1 ectodomain (Arabidopsis thaliana, UniProt Q9SD62)
# Construct: The extracellular domain of XPS1 (amino acids 36-650) was cloned by ligation independent cloning; made in house; host or cells: Hi5 insect cells, baculovirus (pMelBac B)
# Sequence (Q9SD62 36-650): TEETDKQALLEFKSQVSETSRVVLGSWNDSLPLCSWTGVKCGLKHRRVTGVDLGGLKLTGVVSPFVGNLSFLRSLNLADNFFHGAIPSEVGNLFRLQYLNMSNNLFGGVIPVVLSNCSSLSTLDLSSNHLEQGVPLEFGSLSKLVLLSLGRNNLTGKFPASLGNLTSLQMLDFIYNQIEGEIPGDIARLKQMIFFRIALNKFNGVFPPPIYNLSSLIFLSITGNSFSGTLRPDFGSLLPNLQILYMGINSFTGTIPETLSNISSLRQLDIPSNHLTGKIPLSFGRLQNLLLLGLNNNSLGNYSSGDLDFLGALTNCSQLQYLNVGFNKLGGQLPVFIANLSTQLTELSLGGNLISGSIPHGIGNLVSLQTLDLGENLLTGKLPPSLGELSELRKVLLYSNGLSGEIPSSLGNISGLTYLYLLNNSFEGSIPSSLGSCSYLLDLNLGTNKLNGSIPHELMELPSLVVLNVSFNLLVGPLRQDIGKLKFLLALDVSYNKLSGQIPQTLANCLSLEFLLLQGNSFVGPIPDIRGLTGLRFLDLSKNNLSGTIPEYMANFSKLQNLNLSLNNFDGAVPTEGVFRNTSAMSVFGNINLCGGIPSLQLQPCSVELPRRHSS
# MEASUREMENT_PROTOCOL: biochemical
# Assay type: binding
# CONDITION_DETAILS: read-out: KD of binding to XPS1 ECD
Where no end group is shown, it is not given here.
MEASURED_ENDPOINT: pKd
Entry type: numeric. Quantity: pKd, the -log10 of concentration in molar units.

(Q) // fetch pKd given entry QRLSTGSRINSAKDDAAGLQIA [flg22, reference compound]
(A) 4.88
